Values were extracted from paper PMC8139980.

- test target: T1, Qki-5 STAR domain (UniProt Q9QYS9 7-214)
- T1 sequence: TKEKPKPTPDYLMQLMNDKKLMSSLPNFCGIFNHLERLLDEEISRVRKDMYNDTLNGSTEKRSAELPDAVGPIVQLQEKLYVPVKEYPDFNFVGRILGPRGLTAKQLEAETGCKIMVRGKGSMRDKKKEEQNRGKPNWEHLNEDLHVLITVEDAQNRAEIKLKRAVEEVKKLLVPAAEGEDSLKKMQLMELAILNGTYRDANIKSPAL
- test method notes: ITC; text says KH domain of Qki; assayed construct is STAR; MST: 20 nM Atto488-protein, PBS with Tween-20 (0.1% in 2x protein stock), 25 C; ITC: 50 mM Tris pH 7.5, 150 mM NaCl, 20 C
- condition parameters: protein: recombinant; tags: N-terminal Trx-His6 (PreScission site); chain copies: 2
pKd: −log10 of the molar value.
assay metric: pKd

binder	assay metric	result
CCAGTAACCAG (ssDNA) [QDE1]	pKd	4.92
